Assay details: yeast display, Sf9 membrane polyspecificity reagent, FACS + sequencing; frameworks hold sequencing errors

Sequence data	polyreactivity (PSR sort gate)
QVQLVESGGGLVQAVGSHRLSCAASGSIFFWYTMGWYRQPPGKERELVATITGSGSSTTYADSVKGRFTISRDNAKNTVYLQMNSLKPVDTAVYYCAAADIIDHSFPYDYWGQGTQVTVSS	low polyreactivity
QVQLVESGAGLVKAGGSLRLSSAASGSTFGEYDMGWYRQAPGKERELVASITFSAGSTDYADSVKGRFTISRDNAKNTVYLQMNSLNPEDTAVYYCAADGWWPWEYDYWGQGTQGTVSS	low polyreactivity

---

Assay details: yeast display, Sf9 membrane polyspecificity reagent, FACS + sequencing; frameworks hold sequencing errors
Attribute measured: polyreactivity (PSR sort gate)

Sequence data	polyreactivity (PSR sort gate)
QVQLVESGGGLVQAGGSLRLSCAASGRTFSYYAMGWYRQAPGKERELVAAIRRSSGTTYYADSVKGRFTISSDNAKNTVYLQMNSLKPEDTAVYYCNARSRRASIKRDYWGQGTQVTLSS	high polyreactivity
QVQLVESGGGLVQAGGSLRLSCAASGSIFYWYVMVWYRQAPGKERELVATISDSTNYADSVKGRFTISRDNAKNTVYLQMNSLKPEDTAVYYCNARVRGLGKYESWGQGTQVTVSS	low polyreactivity
QVQLVESGGGLVQAGGSLRLSCAASGSTFLGNAMGWYRQAPGKERELVAGITSGGTTNYADSVKGRFTISRDNAKNTVYLQMNSLKPEDTAVYYCNADVWIGQRFDPGYDFDYWGQGTQVTVSS	low polyreactivity
QVQLVESVGGLVQAGGSLRLSCAASGLIFLVNAMGWYRQAPGKERELVAAIDRDGGITYADSVKGRFTISRDNAKNTVYLQLNSLKPEDTAVYYCAADPSSYGRFTYDYWGQGTQVTVSS	low polyreactivity
QVQLVESVRGLVQAGGSLRLSCDASAFIFRSYAMGWNRQAPGKERELVAVISRRGVNTHYADSVKGRFSISRDNAKNTVYLQINSLKPEDTAVYYCAAELSYRGYPYDYWGQGTQVTVSS	high polyreactivity

The reported value for QVQLVESGGGLVQAGGSLRLSCAASGFTFYYYAMGWYRQAPGKERELVAAISSSGVRTYYADSVKGRFTISRDNAKNTVYLQMKSLKPEDTAVYYCATVGRGFPSVELDYWGQGTQVTVSS in terms of polyreactivity (PSR sort gate) is high polyreactivity

// recorded polyreactivity (PSR sort gate) for QVQLVESGGGLVQAGGSLRLSCAASGLISRINAMGWYRQAPGKERELVAAISSGGSTNYADSVKGRFTISRDNAKNTVYLQMNSLKPEDTAVYYCAAGYIRKYSAFRYNYWGQGTQVTVSS : high polyreactivity

# sequence QVQHVESGGGLVQAGGSLRLSCAASGFTFSYNAMGWNRQAPGKERELVAAISATGDGNTYYADSVKGRFTISRDNAKNTVYLQMNSLNPEDTAVYFCNRLPQYALPYRHNGYWGQGTQVTVSS ; its polyreactivity (PSR sort gate) = low polyreactivity

Form: sequence = QVQLVESGGGLVQAGGSLRLSSASSGFIFRGNAMVWSRQAPGKERELVAAISWSGGNTYYADSVKGRFTISRDYAKNTVYLQMNSMIPEDTAVYYCNGVKAYYRWFLPRYQYNFWGQGTQVTVSS ; polyreactivity (PSR sort gate) = high polyreactivity

Reported polyreactivity (PSR sort gate) ( QVQLVESGGGLVQAGGSLRLICAASGFIFVYYVMGWYRQAPGKERELVAAITQSGGSTYYADSVKGRFTISRDNAKNTVYLQMNSLKPEDTAVYYCAAYRRTTGGGYDYWGQGTQVTVSS ) = high polyreactivity

The recorded polyreactivity (PSR sort gate) for QVQLVESGGGLVQAGGSLRLSCAASGSTFLRNAMGWYRQAPGKERELVATISRTGGTTYYADSVKGRFTISRDNAKTTVYLQMNSLKPEDTAVYYCAAYSKYGQHYDYWGQGTQVTVSS is high polyreactivity
